Source: paper PMC10140010

System: CaMK2 alpha (Homo sapiens, UniProt Q9UQM7) | Read-out: pIC50
Sequence (Q9UQM7 whole entry): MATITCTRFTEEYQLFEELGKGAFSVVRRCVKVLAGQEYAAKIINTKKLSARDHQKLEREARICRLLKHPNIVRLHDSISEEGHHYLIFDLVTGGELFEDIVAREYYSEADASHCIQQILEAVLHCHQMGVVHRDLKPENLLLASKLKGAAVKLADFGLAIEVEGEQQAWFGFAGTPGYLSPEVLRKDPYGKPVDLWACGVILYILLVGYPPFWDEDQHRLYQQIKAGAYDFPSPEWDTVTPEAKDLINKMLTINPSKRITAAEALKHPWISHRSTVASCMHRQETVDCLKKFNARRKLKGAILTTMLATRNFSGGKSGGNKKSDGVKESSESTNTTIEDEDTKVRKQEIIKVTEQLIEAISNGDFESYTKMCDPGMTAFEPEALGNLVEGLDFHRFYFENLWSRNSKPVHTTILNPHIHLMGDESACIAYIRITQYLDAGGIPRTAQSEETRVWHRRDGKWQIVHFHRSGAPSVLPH
Numbers only, as −log10 of the molar value.

Field: pIC50 (CaMK2 alpha (Homo sapiens, UniProt Q9UQM7)). Entry: COc1cc(N2CCC3(CCN(C)CC3)CC2)ccc1Nc1ncc(Cl)c(Nc2ccccc2P(C)(C)=O)n1 [Iruplinalkib]
6.03

Consider the additional molecule presented here.
Field: pIC50 (CaMK2 alpha (Homo sapiens, UniProt Q9UQM7)). Entry: COc1cc(N2CCC(N3CCN(C)CC3)CC2)ccc1Nc1ncc(Cl)c(Nc2ccccc2P(C)(C)=O)n1 [Brigatinib, reference compound]
6.50

----------
System: TNIK (Homo sapiens) | Read-out: pIC50
Sequence (Q9UKE5 whole entry): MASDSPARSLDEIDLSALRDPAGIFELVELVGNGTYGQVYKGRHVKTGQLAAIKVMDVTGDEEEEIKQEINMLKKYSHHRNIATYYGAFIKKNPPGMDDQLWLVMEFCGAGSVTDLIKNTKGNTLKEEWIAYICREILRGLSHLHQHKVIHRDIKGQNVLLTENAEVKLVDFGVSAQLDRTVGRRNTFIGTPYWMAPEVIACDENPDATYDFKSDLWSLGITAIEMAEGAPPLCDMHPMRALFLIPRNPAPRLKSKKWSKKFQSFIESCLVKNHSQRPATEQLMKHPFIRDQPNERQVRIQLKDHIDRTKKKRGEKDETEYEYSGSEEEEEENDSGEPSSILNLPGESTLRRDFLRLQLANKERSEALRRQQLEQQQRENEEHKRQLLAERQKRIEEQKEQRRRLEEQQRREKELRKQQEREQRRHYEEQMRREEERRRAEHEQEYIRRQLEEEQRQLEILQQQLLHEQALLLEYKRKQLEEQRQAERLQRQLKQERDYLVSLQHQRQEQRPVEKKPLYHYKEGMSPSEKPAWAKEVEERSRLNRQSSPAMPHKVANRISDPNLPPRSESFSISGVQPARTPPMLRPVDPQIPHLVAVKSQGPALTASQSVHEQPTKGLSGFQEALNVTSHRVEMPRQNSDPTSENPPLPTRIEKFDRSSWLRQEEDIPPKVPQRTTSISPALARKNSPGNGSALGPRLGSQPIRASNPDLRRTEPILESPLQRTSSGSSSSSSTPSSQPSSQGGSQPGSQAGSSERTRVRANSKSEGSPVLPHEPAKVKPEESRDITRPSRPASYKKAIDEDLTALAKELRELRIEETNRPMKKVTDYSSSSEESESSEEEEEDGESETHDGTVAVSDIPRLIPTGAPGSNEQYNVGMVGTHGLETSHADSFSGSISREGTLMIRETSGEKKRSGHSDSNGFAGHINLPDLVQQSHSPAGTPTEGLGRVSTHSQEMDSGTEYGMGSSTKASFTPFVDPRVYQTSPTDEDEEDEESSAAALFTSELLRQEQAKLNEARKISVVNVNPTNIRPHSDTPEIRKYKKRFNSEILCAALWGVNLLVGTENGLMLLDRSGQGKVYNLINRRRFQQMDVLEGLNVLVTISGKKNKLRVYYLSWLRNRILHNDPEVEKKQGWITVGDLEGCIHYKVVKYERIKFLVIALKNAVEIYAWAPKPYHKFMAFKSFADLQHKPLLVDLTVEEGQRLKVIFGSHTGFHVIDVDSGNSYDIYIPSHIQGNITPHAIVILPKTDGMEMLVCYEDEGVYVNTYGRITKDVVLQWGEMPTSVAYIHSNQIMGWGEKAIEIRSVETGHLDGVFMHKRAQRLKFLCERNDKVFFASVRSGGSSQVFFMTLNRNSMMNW
Numbers only, as −log10 of the molar value.

Tell me the measured pIC50 of COc1cc(N2CCC(N3CCN(C)CC3)CC2)ccc1Nc1ncc(Cl)c(Nc2ccccc2P(C)(C)=O)n1 [Brigatinib, reference compound] , please.
5.63

Consider the additional compound presented here.
Tell me the measured pIC50 of `COc1cc(N2CCC3(CCN(C)CC3)CC2)ccc1Nc1ncc(Cl)c(Nc2ccccc2P(C)(C)=O)n1` , please.
5.49
